Molecular target: T1, human GIP receptor (human) (UniProt P48546)
T1 sequence (looked up): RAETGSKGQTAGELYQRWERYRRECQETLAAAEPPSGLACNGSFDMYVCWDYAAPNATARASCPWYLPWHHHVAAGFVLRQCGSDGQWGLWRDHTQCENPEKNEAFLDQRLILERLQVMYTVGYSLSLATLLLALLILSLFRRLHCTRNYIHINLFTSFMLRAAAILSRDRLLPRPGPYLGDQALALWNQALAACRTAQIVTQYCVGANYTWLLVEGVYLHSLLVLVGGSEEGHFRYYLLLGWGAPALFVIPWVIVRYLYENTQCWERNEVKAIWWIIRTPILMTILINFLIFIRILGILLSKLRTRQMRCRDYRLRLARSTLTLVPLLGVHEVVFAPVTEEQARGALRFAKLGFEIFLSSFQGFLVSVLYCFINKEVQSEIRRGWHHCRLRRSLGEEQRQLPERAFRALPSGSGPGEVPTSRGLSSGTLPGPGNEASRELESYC
Experiment: cell-based or functional assay
cAMP Rel EC50 (in the presence of 1% HSA) of 9 nM or higher: TRUE. Under 9 nM: FALSE.

Sample answers from the record:
(Q) Say whether YXQGTXTSDXSIXLDKKAQXXFIEYLTEGGPSSGEPPPSGSEE (non-natural residues; Lys acylated C18 diacid; C-terminal amide; synthetic construct; SITE 2: note = 2-Aminoisobutyric Acid; SITE 6: note = alpha-methyl-2-fluoro-L-phenylalanine; SITE 10: note = 3-(4-Pyridyl)-L-alanine; SITE 13: note = alpha-methyl-leucine; SITE 17: note = Lysine is chemically modified through conjugation of the epsilon-amino group of the Lysine) [Example 638] shows cAMP Rel EC50 (in the presence of 1% HSA) of 9 nM or more.
(A) FALSE

(Q) Say whether YXQGTXTSDXSILLDKKAQXAFIEYLEEGGPSSGAPPPSGEEE (non-natural residues (Aib, αMeF(2F), 4Pal); lipidated Lys; C-amide; synthetic construct; SITE 2: note = 2-Aminoisobutyric Acid; SITE 6: note = alpha-methyl-2-fluoro-L-phenylalanine; SITE 10: note = 3-(4-Pyridyl)-L-alanine; SITE 17: note = Lysine is chemically modified through conjugation of the epsilon-amino group of the Lysine side chain with (gamma-Glu)2-CO-(CH2)1) [Example 611] shows cAMP Rel EC50 (in the presence of 1% HSA) of 9 nM or more.
(A) FALSE

(Q) Say whether YXQGTFTSDFSKXLDKKAQXAFIEYLLAGGPSSGEPPPSEE (synthetic construct; SITE 2: note = 2-Aminoisobutyric Acid; SITE 13: note = alpha-methyl-leucine; SITE 17: note = Lysine is chemically modified through conjugation of the epsilon-amino group of the Lysine side chain with (2-[2-(2-Amino-ethoxy)-ethoxy]-acetyl)-(gamma-Glu)-CO-(CH2) 18-CO2H; SITE 20: n) [Example 4] shows cAMP Rel EC50 (in the presence of 1% HSA) of 9 nM or more.
(A) TRUE

Others:
(Q) Say whether YXQGTXTSDXSIXLDXKAQXEFIEXLIEGGPSSGAPPPSGE (non-natural residues; acylated Lys; C-terminal amide; synthetic construct; SITE 2: note = 2-Aminoisobutyric Acid; SITE 6: note = alpha-methyl-2-fluoro-L-phenylalanine; SITE 10: note = 3-(4-Pyridyl)-L-alanine; SITE 13: note = alpha-methyl-leucine; SITE 16: note = L-ornithine; SITE 17: note = Lysine is chemically modified through conjugation of the epsil) [Example 614] shows cAMP Rel EC50 (in the presence of 1% HSA) of 9 nM or more.
(A) FALSE

(Q) Say whether YXQGTXTSDXSILLDKKAQXAFIEYLEEGGPSSGEPPPSGTEE (acylated Lys, C-terminal amide, non-natural residues; synthetic construct; SITE 2: note = 2-Aminoisobutyric Acid; SITE 6: note = alpha-methyl-2-fluoro-L-phenylalanine; SITE 10: note = 3-(4-Pyridyl)-L-alanine; SITE 17: note = Lysine is chemically modified through conjugation of the epsilon-amino group of the Lysine side chain with (gamma-Glu)2-CO-(CH2)1) [Example 608] shows cAMP Rel EC50 (in the presence of 1% HSA) of 9 nM or more.
(A) FALSE

The values you see were collected from patent US20240270821A1.
